These entries and their values trace back to paper PMC10663500.

# subject_of_test: T1, mouse programmed cell death protein 1 Fc fusion protein (mPD-1-Fc), mPD-1 C60S (aa 25-167) (Mus musculus, UniProt Q02242, stabilised)
# T1 construct: not cleaved; source: Expi293F, purified (Protein A, SEC; dimeric fraction); not shown: Fc (human), C-terminal, kept
# experiment_summary: SPR; Carterra LSA; Fab from the ammonium sulfate precipitate of the culture supernatant immobilised on a NiHC200M chip; hPD-1 (1-1024 nM) or mPD-1-Fc (4-1024 nM) as analyte, fourfold dilution series, no regeneration; HBS-EP pH 7.4, 25 °C; medians over the spots of a construct, KD = koff/kon
# condition_notes: one partner purified
assay_readout: Kd (nM)
The figure you give is taken to be in nM; do not add the unit.

The cases that follow already have their Kd on record.
{"binder": "toripalimab Fab H.K63Y (Fab, V domains shown, heavy chain of Sm3 with this change; numbers count from the chain's first residue; as the light chain of Sm3; source: Brevibacillus, culture supernatant (ammonium sulfate precipitate); not shown: 6xHis, C-terminal, kept; 6xHN, C-terminal, kept) VH: QGQLVQSGAEVKKPGASVKVSCKASGYTFTDYEMHWVRQAPIHGLEWIGVIESETGGTAYNQYFKGRVTITADKSTSTAYMELSSLRSEDTAVYYCAREGITTVATTYYWYFDVWGQGTTVTVSS VL: DVVMTQSPLSLPVTLGQPASISCRSSQSIVHSNGNTYLEWYLQKPGQSPQLLIYKVSNRFSGVPDRFSGSGSGTDFTLKISRVEAEDVGVYYCFQGSHVPLTFGQGTKLEIK", "uom": "nM", "Kd": 75.7}
{"binder": "toripalimab Fab L.L38A (Fab, V domains shown, as the heavy chain of Sm3; light chain of Sm3 with this change; numbers count from the chain's first residue; source: Brevibacillus, culture supernatant (ammonium sulfate precipitate); not shown: 6xHis, C-terminal, kept; 6xHN, C-terminal, kept) VH: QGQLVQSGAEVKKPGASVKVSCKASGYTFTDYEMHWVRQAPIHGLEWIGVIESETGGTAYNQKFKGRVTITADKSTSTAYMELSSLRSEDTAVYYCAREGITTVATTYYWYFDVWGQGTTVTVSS VL: DVVMTQSPLSLPVTLGQPASISCRSSQSIVHSNGNTYAEWYLQKPGQSPQLLIYKVSNRFSGVPDRFSGSGSGTDFTLKISRVEAEDVGVYYCFQGSHVPLTFGQGTKLEIK", "uom": "nM", "Kd": 121}

Now for another entry.
Return the recorded Kd value; entry: toripalimab Fab L.F60Y (Fab, V domains shown, as the heavy chain of Sm3; light chain of Sm3 with this change; numbers count from the chain's first residue; source: Brevibacillus, culture supernatant (ammonium sulfate precipitate); not shown: 6xHis, C-terminal, kept; 6xHN, C-terminal, kept) VH: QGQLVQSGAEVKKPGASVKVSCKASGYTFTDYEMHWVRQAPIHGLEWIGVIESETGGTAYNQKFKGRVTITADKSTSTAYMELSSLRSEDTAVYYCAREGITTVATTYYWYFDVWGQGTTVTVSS VL: DVVMTQSPLSLPVTLGQPASISCRSSQSIVHSNGNTYLEWYLQKPGQSPQLLIYKVSNRYSGVPDRFSGSGSGTDFTLKISRVEAEDVGVYYCFQGSHVPLTFGQGTKLEIK
133
